Assay: Reversal of P-gp-mediated multidrug resistance in human KB/VCR cells assessed as potentiation of vincristine-induced antiproliferative activity by measuring vincristine IC50 at 20 uM measured after 72 hrs by CCK8 assay (Rvb = 0.78 uM)
Hi there, I'd appreciate the recorded pIC50 for every entry that follows.
Numbers only, as −log10 of the molar value.

[
  {
    "cpd smiles": "CC(=O)O[C@H]1CC[C@@H](C)[C@]23OC(C)(C)[C@H](C[C@H](OC(=O)c4ccccc4)[C@]12C)[C@H]3OC(C)=O",
    "pIC50": 7.82
  }
]

// field: pIC50; key: CC(=O)O[C@@H]1[C@@H]2[C@@H](OC(C)=O)[C@]3(OC2(C)C)[C@H](C)C[C@@H](OC(C)=O)[C@H](OC(C)=O)[C@@]3(C)[C@@H]1OC(=O)c1ccccc1 ; value = 7.66

* * *

Please respond with reported pIC50 for every item in the list.
Experiment: Reversal of P-gp-mediated multidrug resistance in human KB/VCR cells assessed as potentiation of vincristine-induced antiproliferative activity by measuring vincristine IC50 at 2 uM measured after 72 hrs by CCK8 assay (Rvb = 0.51 uM)
Give bare numbers, as −log10 of the molar value.

[
  {
    "cpd smiles": "CC(=O)OC[C@]12[C@H](OC(C)=O)C(=O)[C@@H]3[C@@H](OC(C)=O)[C@]1(OC3(C)C)[C@H](C)[C@@H](O)[C@H](OC(C)=O)[C@@H]2OC(C)=O",
    "endpoint result": 6.26
  }
]

# per-item lookup of pIC50; items listed below
1. CC(=O)O[C@H]1[C@@H]2[C@@H](OC(=O)/C=C/c3ccccc3)[C@]3(OC2(C)C)[C@H](C)C[C@H](O)[C@H](OC(C)=O)[C@@]3(C)[C@H]1OC(=O)c1ccccc1
2. CC(=O)O[C@@H]1[C@@H]2[C@@H](OC(C)=O)[C@]3(OC2(C)C)[C@H](C)C[C@H](OC(=O)/C=C/c2ccccc2)[C@H](OC(C)=O)[C@@]3(C)[C@@H]1OC(=O)c1ccccc1
3. CC(=O)O[C@H]1[C@@H]2[C@@H](OC(=O)/C=C/c3ccccc3)[C@]3(OC2(C)C)[C@H](C)C[C@@H](OC(C)=O)[C@H](OC(C)=O)[C@@]3(C)[C@H]1OC(=O)c1ccccc1
4. CC(=O)OC[C@]12[C@H](OC(C)=O)C(=O)[C@@H]3[C@@H](O)[C@]1(OC3(C)C)[C@H](C)[C@@H](OC(C)=O)[C@H](OC(C)=O)[C@@H]2OC(C)=O
5. CCCCCC(=O)O[C@@H]1[C@@H]2[C@@H](OC(C)=O)[C@]3(OC2(C)C)[C@H](C)C[C@@H](OC(C)=O)[C@H](OC(C)=O)[C@@]3(C)[C@H]1OC(=O)c1ccccc1
6. CC(=O)O[C@@H]1[C@@H]2[C@@H](OC(C)=O)[C@]3(OC2(C)C)[C@H](C)CC[C@H](OC(C)=O)[C@@]3(C)[C@H]1OC(=O)c1ccccc1
7. CC(=O)O[C@H]1CC[C@@H](C)[C@]23OC(C)(C)[C@H](C[C@H](OC(=O)c4ccccc4)[C@]12C)[C@H]3OC(C)=O
8. CC(=O)O[C@@H]1C[C@@H](C)[C@]23OC(C)(C)[C@H](C[C@H](OC(=O)c4ccccc4)[C@]2(C)[C@H]1OC(C)=O)[C@H]3OC(=O)/C=C/c1ccccc1

Response line:
1: 7.43; 2: 7.00; 3: 7.00; 4: 6.33; 5: 6.46; 6: 6.62; 7: 6.68; 8: 7.24

Lab note: each molecule below needs its pIC50 filled in.
1. CC(=O)O[C@@H]1[C@@H]2[C@@H](OC(C)=O)[C@]3(OC2(C)C)[C@H](C)CC[C@H](OC(C)=O)[C@@]3(C)[C@@H]1OC(=O)c1ccccc1
2. CC(=O)OC[C@]12[C@H](OC(C)=O)C(=O)[C@@H]3[C@@H](O)[C@]1(OC3(C)C)[C@H](C)[C@@H](O)[C@H](OC(C)=O)[C@@H]2OC(C)=O
3. CC(=O)OC[C@]12[C@H](OC(C)=O)C(=O)[C@@H]3[C@@H](OC(C)=O)[C@]1(OC3(C)C)[C@H](C)C[C@H](O)[C@@H]2OC(C)=O
4. COc1cc2c(cc1OC)CN(CCc1ccc(-n3nnc(-c4cc(OC)c(OC)cc4NC(=O)c4cc(=O)c5ccccc5o4)n3)cc1)CC2

Response line:
[6.70, 6.30, 6.32, 7.80]
